assayMethodText: Plasma pharmacokinetics, 28-day topical ophthalmic dosing in beagle dogs
studyConditions: male, beagle, dog, in vivo, topical or ocular, 0.81 mg/kg, AUC0-last

# compound, AUC(0-t) [ng·h/mL]
rows = [
    ("CC1(C)Oc2ccc(C#N)cc2[C@@H](N2CCCC2=O)[C@@H]1OP(=O)(O)O [CKLP1]", 1520),
]

###

assayMethodText: Plasma pharmacokinetics of CKLP1 and levcromakalim after topical dosing in hound dogs
Type: in vivo, hound dog
studyConditions: CKLP1; topical 10 mM CKLP1 once daily; Day 8
Method: To assess the pharmacokinetic parameters, hound dogs (n=3) were treated with 50 μL topical ocular administration of 10 mM CKLP1 or vehicle (PBS) (n=2) in both eyes, once daily for eight days. […] Immediately prior to analysis, tissues were thawed and their weight was measured. […] Data were acquired and analyzed using Waters MassLynx v4.1 software.
measuredQuantity: Tlast (min)

# smiles, reportedMeasurement
rows = [
    ("CC1(C)Oc2ccc(C#N)cc2[C@@H](N2CCCC2=O)[C@@H]1OP(=O)(O)O", 1450),
]

###

Measured AUC(0-inf) values are reported for all entries that follow.
assayMethodText: Toxicokinetics after escalating intravenous doses of CKLP1 in beagles
Format: in vivo, beagle dog
studyConditions: female, beagle, dog, in vivo, iv, 1.5 mg/kg

# compound, AUC(0-inf)
measured = [
    ("CC1(C)Oc2ccc(C#N)cc2[C@@H](N2CCCC2=O)[C@@H]1OP(=O)(O)O", "62500 ng·h/mL"),
    ("CC1(C)Oc2ccc(C#N)cc2[C@@H](N2CCCC2=O)[C@@H]1O [Levcromakalim, levcromakalim, reference compound]", "272 ng·h/mL"),
]

###

assayMethodText: Plasma pharmacokinetics of CKLP1 and levcromakalim after topical dosing in hound dogs
Type: in vivo, hound dog
studyConditions: levcromakalim after topical 10 mM CKLP1 once daily; Day 1

# compound, Tlast [min]
rows = [
    ("CC1(C)Oc2ccc(C#N)cc2[C@@H](N2CCCC2=O)[C@@H]1O [Levcromakalim, levcromakalim, reference compound]", 480),
]

###

Quick list: concentration at 23 h per entry.
assayMethodText: Concentration of CKLP1 and levcromakalim in ocular and systemic tissues of hound dogs
Assay type: in vivo, hound dog
studyConditions: hound, dog, trabecular meshwork; 23 hours after last dose; topical 10 mM CKLP1 12-13 days; two animals; read-out: concentration in trabecular meshwork
Method: After blood collection for pharmacokinetic studies, bilateral ocular treatment with CKLP1 (10 mM) continued in the hound dogs for 4-5 additional days. For ocular tissue collection, eyes were enucleated and aqueous humor, vitreous humor, trabecular meshwork, optic nerve, ciliary body, iris, retina and cornea were isolated and stored at −80° C. […] Immediately prior to analysis, tissues were thawed and their weight was measured. […] Data were acquired and analyzed using Waters MassLynx v4.1 software.

# molecule, outputUnit, concentration at 23 h
data = [
    ("CC1(C)Oc2ccc(C#N)cc2[C@@H](N2CCCC2=O)[C@@H]1OP(=O)(O)O", "ng/g", 170),
    ("CC1(C)Oc2ccc(C#N)cc2[C@@H](N2CCCC2=O)[C@@H]1O [Levcromakalim, levcromakalim, reference compound]", "ng/g", 2),
]

###

assayMethodText: Concentration of CKLP1 and levcromakalim in ocular and systemic tissues of hound dogs
Format: in vivo, hound dog
studyConditions: hound, dog, heart; 23 hours after last dose; topical 10 mM CKLP1 12-13 days; read-out: concentration in heart
In this section we review reported concentration at 23 h values for a set of molecules.
measuredQuantity: concentration at 23 h (ng/g)

# molecule, outputUnit, reportedMeasurement
measured = [
    ("CC1(C)Oc2ccc(C#N)cc2[C@@H](N2CCCC2=O)[C@@H]1O [Levcromakalim, levcromakalim, reference compound]", "ng/g", 0.9),
    ("CC1(C)Oc2ccc(C#N)cc2[C@@H](N2CCCC2=O)[C@@H]1OP(=O)(O)O", "ng/g", 3.7),
]
